targetUnderTest: Calpain-2 catalytic subunit (Sus scrofa)
Sequence (P43367 whole entry): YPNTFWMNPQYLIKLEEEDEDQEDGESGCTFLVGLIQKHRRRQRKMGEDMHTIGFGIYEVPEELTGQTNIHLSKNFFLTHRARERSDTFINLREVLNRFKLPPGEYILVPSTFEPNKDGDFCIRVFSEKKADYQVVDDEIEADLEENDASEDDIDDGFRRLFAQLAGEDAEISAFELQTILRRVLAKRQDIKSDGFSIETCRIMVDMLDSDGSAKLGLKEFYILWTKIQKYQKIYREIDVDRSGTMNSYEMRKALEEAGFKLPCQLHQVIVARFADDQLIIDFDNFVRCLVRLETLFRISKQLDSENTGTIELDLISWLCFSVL
assayComment: pig calpain II inhibitor potency, dose response, biochemical, fluorogenic peptide substrate (AID 1420)
Type: functional
Field: IC50. Provide a value for each of the molecules that follow.

Which measured IC50 value corresponds to `COc1ccc(/C=N/NC(=O)C2c3ccccc3Oc3ccccc32)c(OC)c1` ?
10.9 µM (not active)

Which measured IC50 value corresponds to `Cc1cccc(C)c1-n1cccc1/C=C1\SC(=S)N(c2cccc(C(=O)O)c2)C1=O` ?
7.27 µM (not active)

Which measured IC50 value corresponds to `CC[n+]1c(/C=C/c2c[nH]c3ccccc23)ccc2cc(C)ccc21` ?
24.6 µM (not active)

Which measured IC50 value corresponds to `COc1cc(NS(=O)(=O)c2ccc(NC(=S)NC(=O)c3sc4ccccc4c3Cl)cc2)ncn1` ?
11.4 µM (not active)

Which measured IC50 value corresponds to O=C(NN1C(=O)c2ccccc2NC1c1ccco1)c1ccc([N+](=O)[O-])cc1 (configuration not stated) ?
10.6 µM (not active)

Which measured IC50 value corresponds to `CCc1ccc(CNCc2cccnc2)cc1` ?
0.454 µM (not active)

Which measured IC50 value corresponds to `C=CCNC(=S)N/N=C/c1ccc(C)c([N+](=O)[O-])c1` ?
3.49 µM (not active)

// provenance: ChEMBL document CHEMBL1201862
